Values from paper PMC12304826

Measured remaining activity at 20 µM values are reported for all entries that follow.
TESTED_ON: human cathepsin S (Homo sapiens, UniProt P25774)
Construct: purchased Enzo Life Sciences, Lörrach, Germany
Sequence (P25774 115-331): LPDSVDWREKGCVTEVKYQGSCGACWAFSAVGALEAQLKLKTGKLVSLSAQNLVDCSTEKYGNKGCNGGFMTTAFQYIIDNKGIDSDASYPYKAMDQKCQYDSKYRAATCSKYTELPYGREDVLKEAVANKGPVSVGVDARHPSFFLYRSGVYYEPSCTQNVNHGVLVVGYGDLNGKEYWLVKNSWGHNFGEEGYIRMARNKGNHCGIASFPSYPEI
METHOD_SUMMARY: Cathepsin S inhibition assay (Cbz-Phe-Arg-AMC)
Assay type: biochemical
RECORDED_CONDITIONS: inhibitor not soluble at 20 µM; calculated for 20 µM from IC50 at two lower concentrations; read-out: Residual activity @ 20 µM (%) Cat S, approximated [e]

COMPOUND	remaining activity at 20 µM
O=C(NC(CC1CCCCC1)C(=O)NC(Cc1ccccc1)C(=O)O)Oc1ccc(NC(=O)C(Cc2ccccc2)Cc2ccccc2)c(Cl)c1 (stereo not shown) [Compound 31]	46%
CC(C)CC(NC(=O)Oc1ccc(NC(=O)C(c2ccccc2)c2ccccc2)c(Cl)c1)C(=O)NC(Cc1ccccc1)C(=O)O (stereo not shown) [Compound 29]	63%
CC(C)CC(NC(=O)Oc1ccc(NC(=O)c2ccc(-c3ccccc3)cc2)c(Cl)c1)C(=O)N1CCCC1C(=O)O (stereo not shown) [Compound 25]	53%

For human cathepsin S (Homo sapiens, UniProt P25774), provide remaining activity at 20 µM of O=C(NC(CC1CCCCC1)C(=O)NC(Cc1ccccc1)C(=O)O)Oc1ccc(NC(=O)C(c2ccccc2)c2ccccc2)c(Cl)c1 (stereo not shown) [Compound 30] please. 42%
